IC50 by entry:
test-system: Activated CDC42 kinase 1 (Homo sapiens, UniProt Q07912)
Sequence (Q07912 whole entry): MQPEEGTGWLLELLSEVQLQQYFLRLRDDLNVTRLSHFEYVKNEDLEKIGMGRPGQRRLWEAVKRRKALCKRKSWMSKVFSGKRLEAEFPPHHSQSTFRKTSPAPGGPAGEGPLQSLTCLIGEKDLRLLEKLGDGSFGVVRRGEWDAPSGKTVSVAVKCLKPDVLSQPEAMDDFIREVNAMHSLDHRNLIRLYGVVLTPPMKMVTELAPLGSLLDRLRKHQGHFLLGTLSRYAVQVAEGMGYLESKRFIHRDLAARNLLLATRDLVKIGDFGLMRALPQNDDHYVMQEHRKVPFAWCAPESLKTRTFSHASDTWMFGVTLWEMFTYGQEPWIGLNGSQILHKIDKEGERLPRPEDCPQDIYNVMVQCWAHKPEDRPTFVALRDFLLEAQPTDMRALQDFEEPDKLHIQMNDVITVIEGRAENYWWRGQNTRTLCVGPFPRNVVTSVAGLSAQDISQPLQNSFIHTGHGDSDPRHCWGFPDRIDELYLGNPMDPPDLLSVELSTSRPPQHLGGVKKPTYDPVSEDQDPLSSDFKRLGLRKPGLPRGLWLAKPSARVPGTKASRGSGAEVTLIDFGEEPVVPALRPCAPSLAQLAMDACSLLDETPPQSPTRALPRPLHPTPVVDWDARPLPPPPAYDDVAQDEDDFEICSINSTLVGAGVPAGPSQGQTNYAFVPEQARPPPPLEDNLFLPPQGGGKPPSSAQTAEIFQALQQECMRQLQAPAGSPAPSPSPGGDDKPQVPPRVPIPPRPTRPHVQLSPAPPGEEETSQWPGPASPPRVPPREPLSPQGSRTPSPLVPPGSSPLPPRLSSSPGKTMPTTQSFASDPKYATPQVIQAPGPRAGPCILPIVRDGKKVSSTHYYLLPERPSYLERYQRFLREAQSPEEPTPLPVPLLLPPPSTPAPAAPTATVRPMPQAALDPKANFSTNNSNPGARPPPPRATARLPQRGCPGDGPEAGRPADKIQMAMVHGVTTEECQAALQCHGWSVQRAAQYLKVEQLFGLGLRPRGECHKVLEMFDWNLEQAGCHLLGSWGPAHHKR
method-notes: Inhibition of ACK1 (unknown origin)
Numeric answer only, unit µM assumed.

Reference set (2 entries):
>>> print(df.to_string())
                                   compound                               test_system  assay_metric  reading
0  Cc1cc(Nc2ncc(Cl)c(Nc3ccccc3S(=O)(=O)C(C)C)n2)c(OC(C)C)cc1C1CCNCC1 [CERITINIB]  Activated CDC42 kinase 1 (Homo sapiens, UniProt Q07912)          IC50   0.0336
1           CNc1cc2c(Nc3cccc(Br)c3)ncnc2cn1  Activated CDC42 kinase 1 (Homo sapiens, UniProt Q07912)          IC50      0.2

GET /values?readout=IC50&item= C=CC(=O)Nc1cc(Nc2nccc(-c3cn(C)c4ccccc34)n2)c(OC)cc1N(C)CCN(C)C [OSIMERTINIB]
0.071
